- assay-target: purified AcpS of S. pneumoniae (Streptococcus pneumoniae, UniProt P0A2W7)
- Construct: made in house; host or cells: E. coli BL21 (pLysS)/pRBP-19 (pET-11a)
- Sequence (P0A2W7 1-120): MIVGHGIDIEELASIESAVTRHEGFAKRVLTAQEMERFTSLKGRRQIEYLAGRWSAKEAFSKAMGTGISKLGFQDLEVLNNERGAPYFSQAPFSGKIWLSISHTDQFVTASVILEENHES
- protocol-notes: HPLC-based AcpS enzyme assay (conversion of apo-ACP to holo-ACP)
- Format: biochemical
- measurement-parameters: Ki, inhibition of AcpS activity with respect to apo-ACP, various apo-ACP concentrations, fixed CoA 20 μM, 3.7 nM AcpS; Dixon plot FIG. 7D
test-readout: Ki

// map Nc1ncnc2c1ncn2[C@@H]1O[C@H](COP(=O)(O)O)[C@@H](OP(=O)(O)O)[C@H]1O [3′,5′-ADP, 3′,5′-adenosine diphosphate] to recorded Ki (system: purified AcpS of S. pneumoniae (Streptococcus pneumoniae, UniProt P0A2W7))
2.5 µM
